Tested on: Ishikawa plus cells
Experiment: Illumina global gene expression profiling in Ishikawa plus cells after 24 h EAC treatment (ANOVA, correlation, K-Means clustering)
Assay type: cell-based, human
Conditions: Pearson correlation on significantly regulated genes; 24 h; dose not specified
Protocol: Cells were routinely maintained in DMEM/F12 with L-Glutamine and 15 mM Hepes supplemented with 10% (v/v) FBS, 1% (v/v) penicillin (10 kU/ml)-streptomycin (10 mg/ml) solution, 0.1% (v/v) Gentamicin (50 mg/ml) and 1 mM sodium pyruvate at 37° C. and 5% CO2 in culture flasks. 5×10^5 cells were seeded onto 6-well plates in phenol-red free DMEM/F12 with L-Glutamine and 15 mM Hepes containing 10% (v/v) dextran-coated charcoal treated FBS, sodium pyruvate and antibiotics. […]
assayEndpoint: correlation of gene expression to ICI

• O=c1c(-c2ccc(O)cc2)coc2cc(O)cc(O)c12 = good correlation
• C[C@H]1CCCC(=O)CCC/C=C/c2cc(O)cc(O)c2C(=O)O1 = good correlation
